Target: T1, N-terminally FLAG-tagged mouse Ang2 (HEK293T conditioned medium) (mouse, UniProt O35608 19-496)
T1 construct: may be a nucleotide entry; also called mAng2; FLAG-mAng2
T1 sequence: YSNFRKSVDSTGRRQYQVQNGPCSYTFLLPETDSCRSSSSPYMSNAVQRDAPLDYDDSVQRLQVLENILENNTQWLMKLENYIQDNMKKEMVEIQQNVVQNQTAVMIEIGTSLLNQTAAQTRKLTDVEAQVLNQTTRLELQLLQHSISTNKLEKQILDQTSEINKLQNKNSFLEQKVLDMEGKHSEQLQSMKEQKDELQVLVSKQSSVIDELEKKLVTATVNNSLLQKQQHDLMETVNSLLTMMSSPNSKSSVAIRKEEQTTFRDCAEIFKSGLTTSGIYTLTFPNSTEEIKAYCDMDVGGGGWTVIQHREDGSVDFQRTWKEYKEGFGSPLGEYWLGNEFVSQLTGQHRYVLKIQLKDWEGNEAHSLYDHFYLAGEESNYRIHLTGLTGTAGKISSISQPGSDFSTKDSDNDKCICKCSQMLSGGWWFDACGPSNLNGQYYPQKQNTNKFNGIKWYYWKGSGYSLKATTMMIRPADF
Assay: competition ELISA, FLAG-mAng2 on coated mTie2-Fc
pIC50: −log10 of the molar value.
Decide using pIC50: a value greater than or equal to 8 is 1.0, a smaller one is 0.0.

Answered cases to consult:
VHH 7G08 (VHH, also called 007G08; not shown: C-terminal c-myc tag and His6 tag) VHH: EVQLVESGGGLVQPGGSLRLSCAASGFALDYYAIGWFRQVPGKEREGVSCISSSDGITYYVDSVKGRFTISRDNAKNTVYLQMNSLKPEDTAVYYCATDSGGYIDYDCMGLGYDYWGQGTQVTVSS | 1.0
VHH 24B05 (VHH, also called 024B05; not shown: C-terminal c-myc tag and His6 tag) VHH: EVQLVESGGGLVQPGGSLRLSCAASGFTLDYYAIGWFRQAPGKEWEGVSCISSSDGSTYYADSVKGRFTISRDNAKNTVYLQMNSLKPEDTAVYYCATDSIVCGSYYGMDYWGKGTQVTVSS | 1.0
VHH 16G09 (VHH, also called 016G09; not shown: C-terminal c-myc tag and His6 tag) VHH: EVQLVESGGGLVQAGGSLRLVCSASGIDFSINAMAWYRQAPGKQREWVAFMINDSSTDYTDSVKGRFTISRDSTKNILYLQMNNLNVEDTAVYYCNTAYEQHTYWGQGTQVTVSS | 0.0
VHH 11B07 (VHH, also called 011B07; not shown: C-terminal c-myc tag and His6 tag) VHH: EVQLVESGGGLVQVGDSLRLSCAASGRTFSTYLMVGWFRQAPGKEREFAAGIWSSGDTAYADSVRGRFTISRDNAKNTVYLQMNSLKTEDTAVYYCAGSYDGNYYIPGFYKDWGQGTQVTVSS | 0.0

// next entry
Ask: Given the entry VHH 2F04 (VHH, also called 002F04; not shown: C-terminal c-myc tag and His6 tag) VHH: EVQLVESGGGLVQAGGSLRLSCAASGFAFDDHLIGWFRQAPGKEREAVSCISRSAGSTYYADSVKGRFTISSDNAKNTVYLQMNSLKADDTAVYYCAAGPAWGRPASPLPYEYDYWGQGTQVTVSS , answer whether its pIC50 meets or surpasses 8.
Reply: 0.0
